- Tested on: clinical MDR Staphylococcus epidermidis isolates
- Assay Explanation: MIC, broth microdilution, 81 clinical MDR strains
- Type: cell-based
- Condition Details: Staphylococcus epidermidis, clinical strain 39 (Table S2); read-out: MIC
Quantity: MIC (µg/mL)
Number only, in µg/mL; omit the unit.

Illustrative cases are given below, each with its answer.
O=C(Nc1cccc(Cl)c1)NC1CCN(CCC(Oc2ccc(C(F)(F)F)cc2)c2cccs2)CC1 (stereo not drawn) [Compound 25]; 1.6
CC(=O)NC[C@H]1CN(c2ccc(N3CCOCC3)c(F)c2)C(=O)O1 [linezolid, reference compound]; 0.8

Ask | Give the value of MIC reported for the following: O=S(=O)(NC1CCN(CCC(Oc2ccc(C(F)(F)F)cc2)c2ccccc2)CC1)c1cccc(Cl)c1 (stereo not drawn) [Compound 12]
Reply | 50

Ask | Give the value of MIC reported for the following: O=S(=O)(NC1CCN(CCC(Oc2ccc(C(F)(F)F)cc2)c2cccs2)CC1)c1cccc(Br)c1 (stereo not drawn) [Compound 18]
Reply | 50

Ask | Give the value of MIC reported for the following: O=S(=O)(NC1CCN(CCC(Oc2ccc(C(F)(F)F)cc2)c2cccs2)CC1)c1cccc(Cl)c1 (stereo not drawn) [Compound 14]
Reply | 12.5

Ask | Give the value of MIC reported for the following: O=S(=O)(NC1CCN(CCC(Oc2ccc(C(F)(F)F)cc2)c2cccs2)CC1)c1cccc(C(F)(F)F)c1 (stereo not drawn) [Compound 21]
Reply | 50

* * *

- System: biofilm-producing Staphylococcus epidermidis strains
- Assay Explanation: Biofilm eradication (MBEC Assay Kit)
- Format: cell-based
- Condition Details: clinical strain 2 (Table S4)
# key: entry, value: MBEC
Number only, in µg/mL; omit the unit.

Illustrative cases are given below, each with its answer.
O=S(=O)(NC1CCN(CCC(Oc2ccc(C(F)(F)F)cc2)c2cccs2)CC1)c1cccc(Cl)c1 (stereo not shown); 125
CC(=O)NC[C@H]1CN(c2ccc(N3CCOCC3)c(F)c2)C(=O)O1 [linezolid, reference compound]; 50

Ask | Give the value of MBEC reported for the following: O=C(Nc1cccc(Cl)c1)NC1CCN(CCC(Oc2ccc(C(F)(F)F)cc2)c2cccs2)CC1 (stereo not shown)
Reply | 31.25

Ask | Give the value of MBEC reported for the following: O=S(=O)(NC1CCN(CCC(Oc2ccc(C(F)(F)F)cc2)c2ccccc2)CC1)c1cccc(Cl)c1 (stereo not shown)
Reply | 125

* * *

- Test system: clinical MDR Staphylococcus epidermidis isolates
- Assay Explanation: MIC, broth microdilution, 81 clinical MDR strains
- Format: cell-based
- Condition Details: Staphylococcus epidermidis, clinical strain 64 (Table S2); read-out: MIC
Quantity: MIC (µg/mL)
Number only, in µg/mL; omit the unit.

Illustrative cases are given below, each with its answer.
O=S(=O)(NC1CCN(CCC(Oc2ccc(C(F)(F)F)cc2)c2cccs2)CC1)c1cccc(Cl)c1 (stereo not drawn); 6.25
O=S(=O)(NC1CCN(CCC(Oc2ccc(C(F)(F)F)cc2)c2cccs2)CC1)c1cccc(Br)c1 (stereo not drawn); 50
O=C(Nc1cccc(Cl)c1)NC1CCN(CCC(Oc2ccc(C(F)(F)F)cc2)c2cccs2)CC1 (stereo not drawn); 3.12
O=S(=O)(NC1CCN(CCC(Oc2ccc(C(F)(F)F)cc2)c2ccccc2)CC1)c1cccc(Cl)c1 (stereo not drawn); 3.12
CC(=O)NC[C@H]1CN(c2ccc(N3CCOCC3)c(F)c2)C(=O)O1 [linezolid, reference compound]; 0.8

Query molecule follows.
Ask | Give the value of MIC reported for the following: O=S(=O)(NC1CCN(CCC(Oc2ccc(C(F)(F)F)cc2)c2cccs2)CC1)c1cccc(C(F)(F)F)c1 (stereo not drawn)
Reply | 50

* * *

- System: clinical MDR Staphylococcus epidermidis isolates
- Assay Explanation: MIC, broth microdilution, 81 clinical MDR strains
- Assay type: cell-based
- Condition Details: Staphylococcus epidermidis, clinical strain 51 (Table S2); read-out: MIC
Quantity: MIC (µg/mL)
Number only, in µg/mL; omit the unit.

Ask | Give the value of MIC reported for the following: CC(=O)NC[C@H]1CN(c2ccc(N3CCOCC3)c(F)c2)C(=O)O1 [linezolid, reference compound]
Reply | 0.2

Ask | Give the value of MIC reported for the following: O=S(=O)(NC1CCN(CCC(Oc2ccc(C(F)(F)F)cc2)c2cccs2)CC1)c1cccc(C(F)(F)F)c1 (stereo not drawn) [Compound 21]
Reply | 50

Ask | Give the value of MIC reported for the following: O=S(=O)(NC1CCN(CCC(Oc2ccc(C(F)(F)F)cc2)c2cccs2)CC1)c1cccc(Cl)c1 (stereo not drawn) [Compound 14]
Reply | 50

Ask | Give the value of MIC reported for the following: O=S(=O)(NC1CCN(CCC(Oc2ccc(C(F)(F)F)cc2)c2ccccc2)CC1)c1cccc(Cl)c1 (stereo not drawn) [Compound 12]
Reply | 50

Ask | Give the value of MIC reported for the following: O=S(=O)(NC1CCN(CCC(Oc2ccc(C(F)(F)F)cc2)c2cccs2)CC1)c1cccc(Br)c1 (stereo not drawn) [Compound 18]
Reply | 50

Ask | Give the value of MIC reported for the following: O=C(Nc1cccc(Cl)c1)NC1CCN(CCC(Oc2ccc(C(F)(F)F)cc2)c2cccs2)CC1 (stereo not drawn) [Compound 25]
Reply | 3.12

* * *

# key: entry, value: MBIC
- Tested on: biofilm-producing Staphylococcus epidermidis strains
- Assay Explanation: Inhibition of biofilm formation (MBIC, resazurin)
- Type: cell-based
- Condition Details: clinical strain 65 (Table S4)
Number only, in µg/mL; omit the unit.

Illustrative cases are given below, each with its answer.
O=S(=O)(NC1CCN(CCC(Oc2ccc(C(F)(F)F)cc2)c2cccs2)CC1)c1cccc(Cl)c1 (stereo not shown); 125
O=S(=O)(NC1CCN(CCC(Oc2ccc(C(F)(F)F)cc2)c2ccccc2)CC1)c1cccc(Cl)c1 (stereo not shown); 125
O=C(Nc1cccc(Cl)c1)NC1CCN(CCC(Oc2ccc(C(F)(F)F)cc2)c2cccs2)CC1 (stereo not shown); 31.25

Query molecule follows.
Ask | Give the value of MBIC reported for the following: CC(=O)NC[C@H]1CN(c2ccc(N3CCOCC3)c(F)c2)C(=O)O1 [linezolid, reference compound]
Reply | 50

* * *

- System: biofilm-producing Staphylococcus epidermidis strains
- Assay Explanation: Biofilm eradication (MBEC Assay Kit)
- Assay type: cell-based
- Condition Details: clinical strain 23 (Table S4)
Quantity: MBEC (µg/mL)
Number only, in µg/mL; omit the unit.

Illustrative cases are given below, each with its answer.
CC(=O)NC[C@H]1CN(c2ccc(N3CCOCC3)c(F)c2)C(=O)O1 [linezolid, reference compound]; 15.6
O=S(=O)(NC1CCN(CCC(Oc2ccc(C(F)(F)F)cc2)c2cccs2)CC1)c1cccc(Cl)c1 (stereo not shown); 15.6
O=S(=O)(NC1CCN(CCC(Oc2ccc(C(F)(F)F)cc2)c2ccccc2)CC1)c1cccc(Cl)c1 (stereo not shown); 31.25

Query compound follows.
Ask | Give the value of MBEC reported for the following: O=C(Nc1cccc(Cl)c1)NC1CCN(CCC(Oc2ccc(C(F)(F)F)cc2)c2cccs2)CC1 (stereo not shown)
Reply | 7.8

* * *

- Tested on: clinical MDR Staphylococcus epidermidis isolates
- Assay Explanation: MIC, broth microdilution, 81 clinical MDR strains
- Format: cell-based
- Condition Details: Staphylococcus epidermidis, clinical strain 57 (Table S2); read-out: MIC
# key: entry, value: MIC
Number only, in µg/mL; omit the unit.

Illustrative cases are given below, each with its answer.
O=S(=O)(NC1CCN(CCC(Oc2ccc(C(F)(F)F)cc2)c2cccs2)CC1)c1cccc(Br)c1 (stereo not drawn) [Compound 18]; 50
O=S(=O)(NC1CCN(CCC(Oc2ccc(C(F)(F)F)cc2)c2cccs2)CC1)c1cccc(C(F)(F)F)c1 (stereo not drawn) [Compound 21]; 50
CC(=O)NC[C@H]1CN(c2ccc(N3CCOCC3)c(F)c2)C(=O)O1 [linezolid, reference compound]; 0.8
O=C(Nc1cccc(Cl)c1)NC1CCN(CCC(Oc2ccc(C(F)(F)F)cc2)c2cccs2)CC1 (stereo not drawn) [Compound 25]; 3.12
O=S(=O)(NC1CCN(CCC(Oc2ccc(C(F)(F)F)cc2)c2cccs2)CC1)c1cccc(Cl)c1 (stereo not drawn) [Compound 14]; 12.5

Ask | Give the value of MIC reported for the following: O=S(=O)(NC1CCN(CCC(Oc2ccc(C(F)(F)F)cc2)c2ccccc2)CC1)c1cccc(Cl)c1 (stereo not drawn) [Compound 12]
Reply | 50

* * *

- System: biofilm-producing Staphylococcus epidermidis strains
- Assay Explanation: Inhibition of biofilm formation (MBIC, resazurin)
- Format: cell-based
- Condition Details: clinical strain 2 (Table S4)
Quantity: MBIC (µg/mL)
Number only, in µg/mL; omit the unit.

Illustrative cases are given below, each with its answer.
O=S(=O)(NC1CCN(CCC(Oc2ccc(C(F)(F)F)cc2)c2ccccc2)CC1)c1cccc(Cl)c1 (stereo not shown); 125
O=S(=O)(NC1CCN(CCC(Oc2ccc(C(F)(F)F)cc2)c2cccs2)CC1)c1cccc(Cl)c1 (stereo not shown); 125
CC(=O)NC[C@H]1CN(c2ccc(N3CCOCC3)c(F)c2)C(=O)O1 [linezolid, reference compound]; 50

Query compound follows.
Ask | Report value only: MBIC, biofilm-producing Staphylococcus epidermidis strains, O=C(Nc1cccc(Cl)c1)NC1CCN(CCC(Oc2ccc(C(F)(F)F)cc2)c2cccs2)CC1 (stereo not shown)
Reply | 31.25
